The measured values listed here are drawn from paper PMC4318582.

Assay: CSF DB829 concentrations in infected vervet monkeys
Assay type: in vivo, vervet monkey
Details: monkey, CSF, intramuscular, 5 mg/kg/day, IM 5 mg/kg/day alternate-day dose group; 1 h post-LDD; read-out: geometric mean CSF DB829 concentration
assay_metric: concentration at 1 h

Ask: Dear colleague, please send me the reported concentration at 1 h for N=C(N)c1ccc(-c2ccc(-c3ccc(C(=N)N)cn3)o2)nc1 [DB829, 2,5-bis(5-amidino-2-pyridyl)furan] when you can.
Reply: 7.3 nM

###

Assay: Plasma pharmacokinetics in infected vervet monkeys (HPLC-MS/MS)
Assay type: in vivo, vervet monkey
Conditions: plasma DB829 after the 10th oral dose of DB868, 10 mg/kg × 10 days; read-out: Cmax
assay_metric: Cmax (nM)
Number in nM, nothing else.

Ask: Dear colleague, please send me the reported Cmax for N=C(N)c1ccc(-c2ccc(-c3ccc(C(=N)N)cn3)o2)nc1 [DB829, 2,5-bis(5-amidino-2-pyridyl)furan] when you can.
Reply: 340
